Where a name gives a salt, the structure may show the parent alone.
Exercise: state measured melting point for each of the compounds provided.

Prompt: Quick check: melting point of NCC1Cc2ccc(-c3ccccc3)cc2O1 (racemic) (as salt: hydrobromid) ?
Completion: 218 to 221 °C

Prompt: // returns reported melting point for input NCC1Cc2cc(F)cc(-c3ccccc3C(F)(F)F)c2O1 (racemic) (as salt: hydrochloride) [Example 108]
Completion: 196 to 198 °C (dec.)

Prompt: Any idea what its melting point is? The compound is Cc1cc(Cl)ccc1-c1cc(F)cc2c1O[C@@H](CN)C2 (as salt: hydrochloride)
Completion: 183 to 185 °C

Prompt: // melting point lookup, key: Cc1cccc(C)c1-c1cccc2c1OC(CN)C2 (racemic) (as salt: hydrochloride) [Example 56]
Completion: > 250 °C

Prompt: Which value of melting point has been reported for NCC1Cc2c(cccc2-c2ccccc2C(F)(F)F)O1 (single isomer, unassigned; (-)) (as salt: hydrochloride) [Example 123] in the records?
Completion: 203 to 206 °C

Prompt: Quick one: melting point of NCC1Cc2cccc(-c3cc(Cl)cc(Cl)c3)c2O1 (racemic) (as salt: hydrochloride) ?
Completion: 165 to 168 °C

Prompt: Could you share which melting point value was measured for NCC1Cc2c(C(F)(F)F)ccc(Cl)c2O1 (racemic) (as salt: hydrochloride) ?
Completion: > 250 °C

Prompt: Which melting point is reported for this compound? CN(C)C[C@H]1Cc2cc(F)cc(-c3c(Cl)cccc3Cl)c2O1 (as salt: hydrochloride)
Completion: 156 to 158 °C

Prompt: Give the measured melting point of COc1ccc(-c2cccc3c2OC(CN)C3)cc1 (single isomer, unassigned; (+)) (as salt: hydrochloride) [Example 80] .
Completion: 183 to 186 °C

Prompt: Look up melting point: CC(C)(C)c1cccc2c1OC(CN)C2 (racemic) (as salt: hydrochloride) [Example 24]
Completion: 177 to 180 °C (dec.)

Prompt: What measured melting point goes with NCC1Cc2cccc(-c3ccsc3)c2O1 (single isomer, unassigned; (-)) (as salt: hydrobromid) [Example 46] ?
Completion: 234 to 235 °C

Prompt: Need melting point, item CC1(CN)Cc2cc(Cl)cc(-c3cccs3)c2O1 (racemic) (as salt: hydrochloride)
Completion: 251 to 252 °C

Prompt: Look at this compound and give its reported melting point. NCC1Cc2cc(F)cc(-c3ccccc3Cl)c2O1 (single isomer, unassigned; (-)) (as salt: hydrochloride) [Example 102]
Completion: 206 to 209 °C

Prompt: Find the recorded melting point belonging to CC(C)c1ccccc1-c1cccc2c1OC(CN)C2 (single isomer, unassigned; (+)) (as salt: hydrochloride) [Example 62] and report it.
Completion: 205 to 206 °C
